// provenance: ChEMBL document CHEMBL1641602

- Experimental Details: Cytotoxicity against human HuH7 cells
- Type: cell-based, Huh-7
- Conditions Used: HuH7 cells, read-out: GI50
In this section, each of the compounds is paired with its reported GI50.
Number in µM, nothing else.

Recorded results for 5 compounds are shown here.
Smiles Entry: COc1cc2c(=O)c(C(=O)c3ccc(C)cc3)cn(Cc3ccc(Cl)cc3)c2cc1OC
GI50 (µM): 15.5
--
Smiles Entry: COc1cc2c(=O)c(C(=O)c3ccc(C)cc3)cn(Cc3ccc(C(C)C)cc3)c2cc1OC
GI50 (µM): 15.5
--
Smiles Entry: COc1cc2c(=O)c(C(=O)OCc3ccccc3C)cn(Cc3ccc(C(F)(F)F)cc3F)c2cc1OC
GI50 (µM): 31
--
Smiles Entry: O=C(OCc1ccc(Cl)cc1)c1cn(Cc2ccc(Cl)cc2)c2cc(N3CCNCC3)c(F)cc2c1=O
GI50 (µM): 1.1
--
Smiles Entry: COc1cc2c(=O)c(C(=O)OCc3ccc(Cl)cc3)cn(Cc3ccc(Cl)cc3)c2cc1OC
GI50 (µM): 28.3

Ask | Given the entry "COc1cc2c(=O)c(C(=O)OCc3cccc(C)c3)cn(Cc3ccc(C(F)(F)F)cc3F)c2cc1OC" , report its measured GI50.
Reply | 7.3

Ask | Given the entry "COc1cc2c(=O)c(C(=O)OCc3ccc(C)cc3)cn(Cc3ccc(C(F)(F)F)cc3F)c2cc1OC" , report its measured GI50.
Reply | 20

Ask | Given the entry "COc1cc2c(=O)c(C(=O)c3ccc(C)cc3)cn(CC3CCCCC3)c2cc1OC" , report its measured GI50.
Reply | 22
